Each record here notes measured Population Hoechst High Intensity Objects (%).
System: Fibroblast
Assay: Multiplex assay against human fibroblast
Assay type: toxicity, cell-based
Conditions: 24 h, 10 µM, compound concentration 10 uM, replicate 1
Field format: number, assumed %, no unit text.

Example compounds with recorded Population Hoechst High Intensity Objects (%):
{"compound": "CC(C)OC(=O)N1CCC(Oc2ncnc3c2cnn3-c2ccc(S(C)(=O)=O)cc2F)CC1", "observed_result": 12}
{"compound": "CC1=C(C(=O)Nc2cc3cn[nH]c3cc2F)C(c2ccc(C(F)(F)F)cc2)CC(=O)N1 (configuration not stated)", "observed_result": 9}
{"compound": "CCc1ccc(OCc2ccccc2C(=O)Nc2ccc3nc(C)cc(N)c3c2)cc1.Cl", "observed_result": 50}
{"compound": "C=CC(=O)Nc1cccc(Oc2nc(Nc3ccc(N4CCN(C)CC4)cc3OC)ncc2Cl)c1", "observed_result": 19}
{"compound": "CC(C)(C)NC[C@H](O)COc1nsnc1N1CCOCC1", "observed_result": 16}
{"compound": "CN1CCN(Cc2ccc(Nc3ncc(Cl)c(Nc4ccccc4S(=O)(=O)N(C)C)n3)cc2)CC1", "observed_result": 15}
{"compound": "COC(=O)C1=C(C)NC(C)=C(C(=O)OCCCN2CCC(c3ccccc3)(c3ccccc3)CC2)[C@H]1c1cccc([N+](=O)[O-])c1", "observed_result": 22}
{"compound": "Cc1ccc(C)c(Oc2ccncc2C(=O)N2CCN(C3CC3)c3ccccc32)c1", "observed_result": 6}
{"compound": "COc1ccccc1CN[C@H]1C2CCN(CC2)[C@H]1C(c1ccccc1)c1ccccc1", "observed_result": 22}
{"compound": "CCCSc1nc(N[C@@H]2C[C@H]2c2ccc(F)c(F)c2)c2nnn([C@@H]3C[C@H](OCCO)[C@@H](O)[C@H]3O)c2n1", "observed_result": 16}

Tell me reported Population Hoechst High Intensity Objects (%) for `O=c1[nH]c2ccccc2n1C1CCN(Cc2ccc(-c3[nH]c4cc5ncnc5cc4nc3-c3ccccc3)cc2)CC1` , tested with Fibroblast. 62

* * *

Tested on: Fibroblast
Experiment: Multiplex assay against human fibroblast
Type: toxicity, cell-based
Conditions: 12 h, 10 µM, compound concentration 10 uM, replicate 1
Each record here notes measured Population Mitochondria Different-Phenotype (%).
Field format: number, assumed %, no unit text.

{"compound": "CCCSc1nc(N[C@@H]2C[C@H]2c2ccc(F)c(F)c2)c2nnn([C@@H]3C[C@H](OCCO)[C@@H](O)[C@H]3O)c2n1 [TICAGRELOR]", "observed_result": 78}
{"compound": "Cl.O=C(O)c1cc(-c2ccc(C3CCNCC3)cc2)c2ccc(-c3ccc(C(F)(F)F)cc3)cc2c1", "observed_result": 20}
{"compound": "Cc1cccc(CN2CCN(C(c3ccccc3)c3ccc(Cl)cc3)CC2)c1.Cl.Cl (stereo not drawn)", "observed_result": 45}

// Population Mitochondria Different-Phenotype (%) lookup, key: Cc1ccc2c(c1)c1c(n2CCc2ccc(C)nc2)CCN(C)C1 [LATREPIRDINE] 30

// Population Mitochondria Different-Phenotype (%) lookup, key: O=C(c1cc2c(cc1F)OC(c1ccc(F)cc1)(c1ccc(Cl)cc1Cl)O2)N1CCOCC1 (stereo not drawn) 43

// Population Mitochondria Different-Phenotype (%) lookup, key: `C=CC(=O)Nc1cccc(Oc2nc(Nc3ccc(N4CCN(C)CC4)cc3OC)ncc2Cl)c1` 2

// Population Mitochondria Different-Phenotype (%) lookup, key: `CC(C)NC(=O)N1CC[C@H](NC2=Nc3cc(F)ccc3N(CC(F)F)c3ccc(Cl)cc32)C1` 21

// Population Mitochondria Different-Phenotype (%) lookup, key: CC(C)c1noc(N2CCC(COc3ccc(-c4ccc(S(C)(=O)=O)cc4)nc3)CC2)n1 [GSK-1292263] 5

* * *

Each record here notes measured Population Mitotic Cells (%).
Test system: Fibroblast
Test: Multiplex assay against human fibroblast
Format: toxicity, cell-based
Conditions: 48 h, 1 µM, compound concentration 1 uM, replicate 1
Field format: number, assumed %, no unit text.

Example molecules with recorded Population Mitotic Cells (%):
{"molecule": "CN1CCN(Cc2ccc(Nc3ncc(Cl)c(Nc4ccccc4S(=O)(=O)N(C)C)n3)cc2)CC1 [DUBERMATINIB]", "value_units": "%", "Population Mitotic Cells (%)": 37}
{"molecule": "Cc1ccccc1C(c1ccccc1C)N1C2CCC1CC(O)(c1ccccc1)C2 (configuration not stated)", "value_units": "%", "Population Mitotic Cells (%)": 38}
{"molecule": "Cl.O=C(O)c1cc(-c2ccc(C3CCNCC3)cc2)c2ccc(-c3ccc(C(F)(F)F)cc3)cc2c1", "value_units": "%", "Population Mitotic Cells (%)": 50}
{"molecule": "C[C@]12CC[C@@H]3c4ccc(O)cc4CC[C@H]3[C@@H]1CC[C@@H]2O [ESTRADIOL]", "value_units": "%", "Population Mitotic Cells (%)": 16}
{"molecule": "COc1ccc(-c2ccc3ncc4c(c3c2)n(-c2ccc(N3CCNCC3)c(C(F)(F)F)c2)c(=O)n4C)cn1.O=C(O)/C=C\\C(=O)O [BGT-226]", "value_units": "%", "Population Mitotic Cells (%)": 15}

// Population Mitotic Cells (%) lookup, key: CC1=C(C(=O)Nc2cc3cn[nH]c3cc2F)C(c2ccc(C(F)(F)F)cc2)CC(=O)N1 (configuration not stated) 33

// Population Mitotic Cells (%) lookup, key: CC(C)(C)NC[C@H](O)COc1nsnc1N1CCOCC1 [TIMOLOL] 35

* * *

Tested on: Fibroblast
Test: Multiplex assay against human fibroblast
Assay type: toxicity, cell-based
Details: 48 h, 1 µM, compound concentration 1 uM, replicate 1
Response field class: enum, chosen by comparing Population Tubulin-Different-Phenotype (%) against range A = under 40%, range B = from 40% up to 50%, range C = 50% and over

Use these answered entries as a reference point.
{"compound": "CC(C)(C)NC[C@H](O)COc1nsnc1N1CCOCC1 [TIMOLOL]", "cat": "range A"}
{"compound": "Cc1ccc2c(c1)c1c(n2CCc2ccc(C)nc2)CCN(C)C1 [LATREPIRDINE]", "cat": "range B"}
{"compound": "C[C@]12CC[C@@H]3c4ccc(O)cc4CC[C@H]3[C@@H]1CC[C@@H]2O [ESTRADIOL]", "cat": "range B"}
{"compound": "CCc1ccc(OCc2ccccc2C(=O)Nc2ccc3nc(C)cc(N)c3c2)cc1.Cl", "cat": "range C"}
{"compound": "CCCSc1nc(N[C@@H]2C[C@H]2c2ccc(F)c(F)c2)c2nnn([C@@H]3C[C@H](OCCO)[C@@H](O)[C@H]3O)c2n1 [TICAGRELOR]", "cat": "range A"}

Lab log: COc1cc2ncn(-c3cc(OCc4ccccc4C(F)(F)F)c(C(N)=O)s3)c2cc1OC [GW843682X] — assign Population Tubulin-Different-Phenotype (%) category range C

Lab log: `CNC(=O)Nc1ccc(-c2nc(N3CC4CCC(C3)O4)c3cnn(C4CCC5(CC4)OCCO5)c3n2)cc1` — assign Population Tubulin-Different-Phenotype (%) category range B

Lab log: `CC(C)OC(=O)N1CCC(Oc2ncnc3c2cnn3-c2ccc(S(C)(=O)=O)cc2F)CC1` — assign Population Tubulin-Different-Phenotype (%) category range A

Lab log: `COc1cc(Nc2nccc(-c3cnn4nc(OC)ccc34)n2)cc(C(F)(F)F)c1` — assign Population Tubulin-Different-Phenotype (%) category range A

Lab log: Cc1c[nH]c2nccc(Oc3c(F)cc(Nc4cc(Cl)nc(N)n4)cc3F)c12 [BAY-549] — assign Population Tubulin-Different-Phenotype (%) category range A

Lab log: CC1=C(C(=O)Nc2cc3cn[nH]c3cc2F)C(c2ccc(C(F)(F)F)cc2)CC(=O)N1 (configuration not stated) — assign Population Tubulin-Different-Phenotype (%) category range A

Lab log: Cc1cccc(CN2CCN(C(c3ccccc3)c3ccc(Cl)cc3)CC2)c1.Cl.Cl (configuration not stated) — assign Population Tubulin-Different-Phenotype (%) category range A

Lab log: COC(=O)C1=C(C)NC(C)=C(C(=O)OCCCN2CCC(c3ccccc3)(c3ccccc3)CC2)[C@H]1c1cccc([N+](=O)[O-])c1 [NIGULDIPINE] — assign Population Tubulin-Different-Phenotype (%) category range C

Lab log: COc1ccc(-c2ccc3ncc4c(c3c2)n(-c2ccc(N3CCNCC3)c(C(F)(F)F)c2)c(=O)n4C)cn1.O=C(O)/C=C\C(=O)O [BGT-226] — assign Population Tubulin-Different-Phenotype (%) category range B

* * *

Test system: U2OS
Test: Multiplex assay against U2OS
Format: toxicity, cell-based
Settings: human, 48 h, 10 µM, compound concentration 10 uM, replicate 2
Given measured Population Membrane Permeable-Phenotype (%), output label 1 if it is greater than or equal to 20% and label 0 if not.

Use these answered entries as a reference point.
{"molecule": "C[C@]12CC[C@@H]3c4ccc(O)cc4CC[C@H]3[C@@H]1CC[C@@H]2O", "cat": "label 0"}
{"molecule": "CC(C)Oc1ccccc1C(=O)Nc1ccccc1C(=O)Nc1cccc(S(=O)(=O)C(F)(F)F)c1", "cat": "label 1"}
{"molecule": "CN1CCN(Cc2ccc(Nc3ncc(Cl)c(Nc4ccccc4S(=O)(=O)N(C)C)n3)cc2)CC1", "cat": "label 1"}
{"molecule": "CCOC(=O)Nc1cc(-c2ccc(C)c(NS(C)(=O)=O)c2)nn2c(C)nnc12", "cat": "label 0"}

Switching to the query record.
Is Population Membrane Permeable-Phenotype (%) for CC1=C(C(=O)Nc2cc3cn[nH]c3cc2F)C(c2ccc(C(F)(F)F)cc2)CC(=O)N1 (stereo not given) at or above 20%? label 0
